# System: BEL-7402 cells
# EXPERIMENT SUMMARY: MTT cytotoxicity assay, BEL-7402
# Type: cell-based, human
# MEASUREMENT CONTEXT: 48 h, read-out: IC50 toward BEL-7402
pIC50: −log10 of the molar value.
QUANTITY NAME: pIC50

N.N.[Cl][Pt][Cl] [Cisplatin, reference compound] ... 4.97
F[P-](F)(F)(F)(F)F.Nc1c(N)c2cccnc2c2ncccc12.[Ir+3].[c-]1ccccc1-c1ccccn1.[c-]1ccccc1-c1ccccn1 [Complex 3, [Ir(Hppy)2(DAP)]PF6] ... 4.16
F[P-](F)(F)(F)(F)F.O=[N+]([O-])c1cc2ccc[n+]3c2c2c1ccc[n+]2[Ir-5]312([c]3ccccc3-c3cccc[n+]31)[c]1ccccc1-c1cccc[n+]12 [Complex 1, [Ir(Hppy)2(NP)]PF6] ... 4.64
F[P-](F)(F)(F)(F)F.Nc1c([N+](=O)[O-])c2cccnc2c2ncccc12.[Ir+3].[c-]1ccccc1-c1ccccn1.[c-]1ccccc1-c1ccccn1 [Complex 2, [Ir(Hppy)2(NAP)]PF6] ... 4.16
